ASSAYED SYSTEM: NACHT, LRR and PYD domains-containing protein 3 (Mus musculus)
Sequence (Q8R4B8 whole entry, the tested form may be a part): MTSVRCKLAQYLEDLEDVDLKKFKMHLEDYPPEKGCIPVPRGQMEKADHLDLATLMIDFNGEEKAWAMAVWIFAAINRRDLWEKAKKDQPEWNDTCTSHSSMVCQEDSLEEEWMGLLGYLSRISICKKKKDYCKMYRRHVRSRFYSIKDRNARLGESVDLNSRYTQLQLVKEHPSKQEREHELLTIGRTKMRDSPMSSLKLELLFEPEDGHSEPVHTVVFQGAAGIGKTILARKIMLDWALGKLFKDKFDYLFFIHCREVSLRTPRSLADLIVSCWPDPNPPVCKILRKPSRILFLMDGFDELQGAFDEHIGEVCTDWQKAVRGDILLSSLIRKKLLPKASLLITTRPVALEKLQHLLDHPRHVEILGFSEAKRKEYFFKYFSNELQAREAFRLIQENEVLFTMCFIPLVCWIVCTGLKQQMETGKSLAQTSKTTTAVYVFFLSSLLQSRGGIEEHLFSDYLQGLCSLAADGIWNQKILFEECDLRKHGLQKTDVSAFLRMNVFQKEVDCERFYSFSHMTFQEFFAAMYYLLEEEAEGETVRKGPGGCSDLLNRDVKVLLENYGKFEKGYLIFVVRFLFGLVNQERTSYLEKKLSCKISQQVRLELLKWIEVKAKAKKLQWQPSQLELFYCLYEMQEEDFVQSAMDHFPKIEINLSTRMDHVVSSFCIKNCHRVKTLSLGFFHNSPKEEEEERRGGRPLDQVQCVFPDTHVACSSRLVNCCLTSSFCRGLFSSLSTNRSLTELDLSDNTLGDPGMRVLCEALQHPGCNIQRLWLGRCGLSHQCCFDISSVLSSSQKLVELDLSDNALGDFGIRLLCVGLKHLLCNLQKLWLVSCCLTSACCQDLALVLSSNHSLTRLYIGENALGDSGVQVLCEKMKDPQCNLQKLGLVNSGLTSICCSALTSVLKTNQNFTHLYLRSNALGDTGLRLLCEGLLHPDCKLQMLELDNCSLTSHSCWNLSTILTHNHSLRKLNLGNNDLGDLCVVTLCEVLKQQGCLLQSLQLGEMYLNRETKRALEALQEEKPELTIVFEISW
PROTOCOL TEXT: Inhibition of NLRP3 in mouse J774A.1 cells infected with FLA-ST assessed as inhibition of LPS- induced IL-1beta production by ELISA
Assay type: cell-based, J774.A1
Decide using IC50 alone. Strictly below 10 µM: 1.0. Equal to or above 10 µM: 0.0.

Could you please tell me whether IC50 recorded for CSc1ccc(C(=O)/C=C/c2cc(C)c(O)c(C)c2)cc1 is less than 10 µM? 1.0

Could you please tell me whether IC50 recorded for CSc1ccc(C(=O)/C=C/c2ccc(O)c(Cl)c2)cc1 is less than 10 µM? 1.0

Could you please tell me whether IC50 recorded for CCc1cc(/C=C/C(=O)c2ccc(SC)cc2)cc(CC)c1O is less than 10 µM? 0.0

Could you please tell me whether IC50 recorded for CSc1ccc(C(=O)/C=C/c2ccc(O)cc2)cc1 is less than 10 µM? 0.0

Could you please tell me whether IC50 recorded for CSc1ccc(C(=O)/C=C/c2ccc(O)cc2F)cc1 is less than 10 µM? 0.0

Could you please tell me whether IC50 recorded for CSc1ccc(C(=O)/C=C/c2ccc(O)c(F)c2)cc1 is less than 10 µM? 0.0

Could you please tell me whether IC50 recorded for COc1c(C)cc(/C=C/C(=O)c2ccc(NC(=O)Nc3ccc(C)cc3)cc2)cc1C is less than 10 µM? 0.0

Could you please tell me whether IC50 recorded for COc1c(C)cc(/C=C/C(=O)c2ccc(SC)cc2)cc1C is less than 10 µM? 0.0

Could you please tell me whether IC50 recorded for CSc1ccc(C(=O)/C=C/c2cc(C)c(OCCCN3CCOCC3)c(C)c2)cc1 is less than 10 µM? 0.0

Could you please tell me whether IC50 recorded for CSc1ccc(C(=O)/C=C/c2cc(C)c(OCCCCC(=O)O)c(C)c2)cc1 is less than 10 µM? 0.0

Could you please tell me whether IC50 recorded for CSc1ccc(C(=O)/C=C/c2ccc(O)c(O)c2)cc1 is less than 10 µM? 1.0

Could you please tell me whether IC50 recorded for CCCNC(=O)Nc1ccc(C(=O)/C=C/c2cc(C)c(OC)c(C)c2)cc1 is less than 10 µM? 1.0

Could you please tell me whether IC50 recorded for CCCNC(=O)Oc1c(C)cc(/C=C/C(=O)c2ccc(SC)cc2)cc1C is less than 10 µM? 0.0

Could you please tell me whether IC50 recorded for CSc1ccc(C(=O)/C=C/c2c(C)cc(O)cc2C)cc1 is less than 10 µM? 0.0

Could you please tell me whether IC50 recorded for CCC(Oc1c(C)cc(/C=C/C(=O)c2ccc(SC)cc2)cc1C)C(=O)O (stereo not drawn) is less than 10 µM? 0.0

Could you please tell me whether IC50 recorded for Cc1cc(/C=C/C(=O)c2ccc(-c3cccs3)cc2)cc(C)c1O is less than 10 µM? 0.0

Could you please tell me whether IC50 recorded for COc1c(C)cc(/C=C/C(=O)c2ccc(NC(=O)Nc3ccc(F)cc3)cc2)cc1C is less than 10 µM? 0.0

Could you please tell me whether IC50 recorded for CSc1ccc(C(=O)/C=C/c2ccc(C(=O)O)cc2)cc1 is less than 10 µM? 1.0

Could you please tell me whether IC50 recorded for Cc1cc(/C=C/C(=O)c2ccc([S+](C)[O-])cc2)cc(C)c1O (stereo not drawn) is less than 10 µM? 0.0

Could you please tell me whether IC50 recorded for C=CC(=O)Nc1ccc(C(=O)/C=C/c2cc(C)c(O)c(C)c2)cc1 is less than 10 µM? 1.0

Could you please tell me whether IC50 recorded for COc1c(C)cc(/C=C/C(=O)c2ccc(NC(=O)NC(C)C)cc2)cc1C is less than 10 µM? 0.0

Could you please tell me whether IC50 recorded for COc1c(C)cc(/C=C/C(=O)c2ccc(N)cc2)cc1C is less than 10 µM? 1.0

Data provenance is ChEMBL document CHEMBL4814056.
